Tested on: Staphylococcus aureus
Assay: Antibacterial activity against Staphylococcus aureus ATCC 29213 incubated for 16 to 18 hrs by broth dilution method
Type: functional
Details: time 16-18 hrs
OBSERVED_PROPERTY: MIC (µg/mL)

MOL_SMILES	OBSERVED_PROPERTY	UNITS_LABEL	VALUE_RELATION_SIGN	READOUT_VALUE
C=CCc1cc(-c2ccc(OCCC[N+](C)(C)CC(=O)NCCCC)c(CC=C)c2)c2oc(-c3ccc(F)cc3Cl)nc2c1.[Br-]	MIC	µg/mL	=	8
C=CCc1cc(-c2ccc(OCCC[N+](C)(C)CC(=O)NCCCC)c(CC=C)c2)c2oc(-c3ccc(Cl)c(Cl)c3)nc2c1.[Br-]	MIC	µg/mL	=	128
C=CCc1cc(-c2ccc(OCCC[N+](C)(C)CC(=O)NCCCC)c(CC=C)c2)c2oc(-c3ccccc3)nc2c1.[Br-]	MIC	µg/mL	=	8
C=CCc1cc(-c2ccc(OCCC[N+](C)(C)CC(=O)NCCCC)c(CC=C)c2)c2oc(-c3cccc(Cl)c3Cl)nc2c1.[Br-]	MIC	µg/mL	=	32
C=CCc1cc(-c2ccc(OCCC[N+](C)(C)CC(=O)NCCCC)c(CC=C)c2)c2oc(-c3ccccc3Cl)nc2c1.[Br-]	MIC	µg/mL	=	16
C=CCc1cc(-c2ccc(OCCC[N+](C)(C)CC(=O)NCCCC)c(CC=C)c2)c2oc(-c3cc(Br)ccc3F)nc2c1.[Br-]	MIC	µg/mL	=	64
C=CCc1cc(-c2ccc(OCCC[N+](C)(C)CC(=O)NCCCC)c(CC=C)c2)c2oc(-c3ccc(F)c(Br)c3)nc2c1.[Br-]	MIC	µg/mL	=	128
C=CCc1cc(-c2ccc(OCCC[N+](C)(C)CC(=O)NCCCC)c(CC=C)c2)c2oc(-c3ccc(F)c(F)c3)nc2c1.[Br-]	MIC	µg/mL	=	8
C=CCc1cc(-c2ccc(OCCC[N+](C)(C)CC(=O)NCCCC)c(CC=C)c2)c2oc(-c3cc(Br)cc(Br)c3)nc2c1.[Br-]	MIC	µg/mL	=	128
C=CCc1cc(-c2ccc(OCCC[N+](C)(C)CC(=O)NCCCC)c(CC=C)c2)c2oc(-c3ccc(Cl)cc3Br)nc2c1.[Br-]	MIC	µg/mL	>	128
C=CCc1cc(-c2ccc(OCCC[N+](C)(C)CC(=O)NCCCC)c(CC=C)c2)c2oc(-c3ccc(Br)cc3Br)nc2c1.[Br-]	MIC	µg/mL	=	128
C=CCc1cc(-c2ccc(OCCC[N+](C)(C)CC(=O)NCCCC)c(CC=C)c2)c2oc(-c3ccc(Cl)c(Br)c3)nc2c1.[Br-]	MIC	µg/mL	=	128
C=CCc1cc(-c2ccc(OCCC[N+](C)(C)CC(=O)NCCCC)c(CC=C)c2)c2oc(-c3cc(F)c(F)c(F)c3)nc2c1.[Br-]	MIC	µg/mL	>	128
C=CCc1cc(-c2ccc(OCCC[N+](C)(C)CC(=O)NCCCC)c(CC=C)c2)c2oc(-c3ccc(Br)cc3)nc2c1.[Br-]	MIC	µg/mL	=	64
C=CCc1cc(-c2ccc(OCCC[N+](C)(C)CC(=O)NCCCC)c(CC=C)c2)c2oc(-c3ccc(F)c(Cl)c3)nc2c1.[Br-]	MIC	µg/mL	=	64
C=CCc1cc(-c2ccc(OCCC[N+](C)(C)CC(=O)NCCCC)c(CC=C)c2)c2oc(-c3ccc(Cl)cc3Cl)nc2c1.[Br-]	MIC	µg/mL	=	32
C=CCc1cc(-c2ccc(OCCC[N+](C)(C)CC(=O)NCCCC)c(CC=C)c2)c2oc(-c3cccc(Br)c3)nc2c1.[Br-]	MIC	µg/mL	=	32
C=CCc1cc(-c2ccc(OCCC[N+](C)(C)CC(=O)NCCCC)c(CC=C)c2)c2oc(-c3ccccc3Br)nc2c1.[Br-]	MIC	µg/mL	=	4
C=CCc1cc(-c2ccc(OCCC[N+](C)(C)CC(=O)NCCCC)c(CC=C)c2)c2oc(-c3ccc(Cl)cc3F)nc2c1.[Br-]	MIC	µg/mL	>	128
